protocol notes: in vitro
condition parameters: pig, pH 7.4
measured attribute: recovery at 60 min, 10 mM (%)
Note: unit % is implicit; provide only the numeric part.

-- ask What recovery at 60 min, 10 mM value was documented for this compound, CC(C)NCC(O)COc1cccc2ccccc12 (stereo not shown) [Propranolol] ?
-- reply 0.4

----------
protocol notes: in vitro
condition parameters: pig, pH 7.4
measured attribute: recovery at 120 min, 10 mM (%)
Note: unit % is implicit; provide only the numeric part.

-- ask What recovery at 120 min, 10 mM value was documented for this compound, CC(C)NCC(O)COc1cccc2ccccc12 (stereo not shown) [Propranolol] ?
-- reply 1.04

----------
protocol notes: in vitro
condition parameters: pig, pH 7.4
measured attribute: recovery at 720 min, 10 mM (%)
Note: unit % is implicit; provide only the numeric part.

-- ask What recovery at 720 min, 10 mM value was documented for this compound, CC(C)NCC(O)COc1cccc2ccccc12 (stereo not shown) ?
-- reply 6.47

----------
protocol notes: in vitro
condition parameters: pig, pH 7.4
Protocol: The intestine was prepared so the mucous side will be facing the donor compartment.
measured attribute: recovery at 0 min, 10 mM (%)
Note: unit % is implicit; provide only the numeric part.

-- ask What recovery at 0 min, 10 mM value was documented for this compound, CC(C)NCC(O)COc1cccc2ccccc12 (stereo not shown) ?
-- reply 0

----------
protocol notes: in vitro
condition parameters: pig, pH 7.4
measured attribute: recovery at 30 min, 10 mM (%)
Note: unit % is implicit; provide only the numeric part.

-- ask What recovery at 30 min, 10 mM value was documented for this compound, CC(C)NCC(O)COc1cccc2ccccc12 (stereo not shown) [Propranolol] ?
-- reply 0.16
